# GI50 per entry
test system: SNB-75 CNS; test: NCI tumour cell line growth inhibition, 48 h

compound	GI50
COc1ccc2c(c1)C(=O)/C(=C/c1cccc(OCC(=O)c3ccccc3)c1)CC2	42.4 µM
c1ccc(C2ONC3=NCCN32)cc1 (stereo unspecified)	53.4 µM
COc1ccc(C2=Nn3c(nnc3-c3cc(Cl)cc(Cl)c3Cl)SC2)cc1	0.335 µM
O=C1/C(=C/c2ccc([N+](=O)[O-])cc2)CN(C(=O)CCN2CCC(=NO)CC2)C/C1=C\c1ccc([N+](=O)[O-])cc1	1.95 µM
O=S(=O)(Nc1ccc(Br)cc1)c1ccc(-c2cnc(C3CC3)o2)cc1	0.518 µM
O=C(NCC1CC1)c1ccc(-c2cccc(C(=O)NC3CC3)c2)cc1	> 25 µM
Cc1cc([NH-])c([NH-])cc1C.[Cl][Pt+2][Cl]	39.2 µM
Nc1nc2ccc(-c3nc4ccc5[nH]ncc5c4c4c3CCC4)cc2s1	0.115 µM
CO/N=C(\COc1ccc2c(c1)[nH]c1ccccc12)c1ccc(OC)cc1	6.66 µM
O=C(Nc1cccc(Cl)c1)Nn1cnnc1	> 50 µM
CCCCN(CCCC)Cc1cc(Nc2ccnc3cc(Cl)ccc23)ccc1O	2.83 µM

----------
tested on: HCT-116 colon; test: NCI tumour cell line growth inhibition, 48 h

substanceSmiles	TGI
Oc1cc(Cc2ccccc2)c(Cc2ccccc2)cc1O	> 10 µM
O=c1cc(-c2cccs2)[nH]c2cc3c(cc12)OCO3	> 100 µM
CCN(CCCOc1ccccc1)CCN(CC)CCCOc1ccccc1	> 100 µM
N=C1C(=N)c2ccccc2-c2ccccc21.[Cl-].[Ru+2].c1ccc(-c2ccccn2)nc1.c1ccc(-c2ccccn2)nc1	> 100 µM
C=CCOC(=O)N1c2ccc(O[Si](C)(C)C(C)(C)C)cc2[C@@]23O[C@@]24[C@@H]1C#C/C=C\C#C[C@]3(O)C(OC)(OC)C[C@@H]4C	> 100 µM

----------
tested on: ACHN renal; test: NCI tumour cell line growth inhibition, 48 h

compound	TGI
Nc1ncnc2c1ncn2C1OC(CSCC(F)(F)F)C(O)C1O (stereo unspecified)	> 100 µM
Cc1c2cnccc2c(C)c2c1c1cc(C#N)ccc1n2C	0.456 µM
Cc1nc(C(N)=O)c(N)n1CCN1CCN(C(=O)CCCCCCCCCCNC2N=CNc3nc[nH]c32)CC1 (stereo unspecified)	> 100 µM
O=c1oc2ccccc2c2c1Sc1ccccc1N2	> 100 µM
O=C1C=CC(=O)c2c1ccc1c3ccccc3n(Cc3ccc([N+](=O)[O-])cc3)c21	> 100 µM
O=S1(=O)c2ccccc2Oc2ccc(C(/C=N/O)=N/O)cc21	> 100 µM

----------
test system: OVCAR-4 ovarian; assay: NCI tumour cell line growth inhibition, 48 h
# TGI per entry

compound	TGI
C[C@@]1(O)C2CC3CC1(c1ccccc1)CC(/C3=N/O)/C2=N\O (stereo partly drawn)	> 100 µM
CCn1nc(C)c2c1C(=O)NCC(=O)N2	> 100 µM
O=C1[C@H](O)[C@@H]2C(O)O[C@H]3[C@@H]2N1C[C@H]3[Si](c1ccccc1)(c1ccccc1)c1ccccc1 (stereo partly drawn)	> 100 µM
COc1ccc([C@H]2[C@H]3COC(=O)[C@H]3C(C#N)=C3Sc4ccccc4N32)cc1	> 100 µM
COc1ccc(-c2noc(C(=O)O)c2-c2cc(OC)c(OC)c(OC)c2)cc1	> 100 µM
CC1=C([Se]CC(OC(=O)CC[Se]c2ccccc2)C(=O)NC(C)(C)C)C(=O)c2ccccc2C1=O (stereo not drawn)	3 µM
CC12CCC(CC(=O)/C1=C(/Br)I)C2(C)C (stereo not drawn)	29.1 µM
CCOC(=O)C(C#N)(Cc1c[nH]c2ccccc12)NC(C)=O (stereo not drawn)	> 100 µM
CCOC(=O)c1c(C)n(Cc2ccc(Cl)cc2Cl)c2c1cc(O)c1[nH]c3c(c12)CCCC3	41.7 µM
CC(=O)c1c(O)c(C)c(O)c(Cc2c(O)c3c(c(C(=O)/C=C/c4ccccc4)c2O)OC(C)(C)C=C3)c1O	29.4 µM
NC(=O)Nc1c(Cl)cc(S(N)(=O)=O)cc1Cl	> 100 µM
FC(F)(F)c1cccc(-c2nc3nc(Cl)c(Cl)nc3[nH]2)c1	> 41.6 µM
COc1cc2c(c(O)c1O)C(=O)C1CCC(=O)N1C2c1cccc2ccccc12 (stereo not drawn)	> 50 µM
COc1ccc(N2CC(=O)N(C(=O)COc3ccc(OCC(=O)N4C(=O)CN(c5ccc(OC)cc5)C4=S)cc3)C2=S)cc1	> 100 µM
N#CC(N)=Nc1ccccc1	> 100 µM
O=C(Nc1cccc(Cl)c1)Nn1cnnc1	> 100 µM
O=C(COc1ccccc1Cl)N1N=C(c2ccc(Cl)cc2)CC1(O)c1ccccc1 (stereo not drawn)	> 100 µM
CN(C)CCNc1ccc2c(=O)n(CCN(C)C)c(=O)n3c4ccc(O)cc4c(=O)c1c23	0.38 µM
C=CCc1c(Cl)nc(Cl)nc1Cl	0.84 µM
CSc1ncc2c(n1)C(C#N)C1Sc3ccccc3N1C2=O (stereo not drawn)	> 100 µM
COc1ccc(N2C(=O)C3c4[nH]c5ccc(OCc6ccccc6)cc5c4C4CCC(c5ccccc5)CC4C3C2=O)cc1 (stereo not drawn)	3.04 µM
CC(=O)O[C@H]1CC(C)(C)C(=C=C/C(C)=C/C=C/C=C/C=C(C)/C=C2C=C(/C=C/[C@@]34O[C@]3(C)C[C@@H](O)CC4(C)C)C(=O)O/2)[C@](C)(O)C1	> 100 µM
Cn1c(=O)c2[nH]c(N/N=N/c3nncs3)nc2n(C)c1=O	> 100 µM
N#CC(C#N)=C/C=C(\Cl)c1ccc(Cl)cc1	55.6 µM
CCNCCNC(=O)c1ccc(I)cc1	> 100 µM
CCN1C(=O)N(CC)C2C1NN=c1s/c(=C\c3ccc(Cl)cc3Cl)c(=O)n12 (stereo not drawn)	> 95.9 µM
CC(N=NNc1ccc(-c2nc3ccccc3[nH]2)cc1)C(=O)O (stereo not drawn)	> 100 µM
COC(=O)C1(NC(=O)C(CC(=O)OCc2ccccc2)NC(=O)OCc2ccccc2)CCCCCC1 (stereo not drawn)	43.8 µM
Cn1nc2ccc([N+](=O)[O-])c(Cn3nnc4ccccc43)c2n1	> 100 µM
CC(=O)c1c(-c2cccc3ccccc23)c(C#N)c(=S)n(C2OC(CO)C(O)C(O)C2O)c1C (stereo not drawn)	> 100 µM
Cc1cc(C)nc(NS(=O)(=O)c2ccc(NC(=O)c3c4ccccc4nc4ccccc34)cc2)n1	> 100 µM
C=CCC1(C#N)C(=S)NC2=C(C(=O)CC(C)(C)C2)C1c1ccccc1 (stereo not drawn)	88.9 µM
O=C(O)CCc1nc2c(n1-c1ccccc1)C(=O)c1ccccc1C2=O	> 100 µM

----------
tested on: NCI-H460 lung; experiment: NCI tumour cell line growth inhibition, 48 h
# TGI per entry

molecule	TGI
COC(=O)[C@H]1C=NN[C@@H]1C(=O)N1[C@H]2CC3CC[C@@]2(CS1(=O)=O)C3(C)C	> 100 µM
CCSCCCSCCSCC	> 100 µM
Cc1c(OC(C)C(=O)O)ccc2c(-c3ccccc3)cc(=O)oc12 (stereo not drawn)	> 100 µM
Cc1ccc(S(=O)(=O)NC(=O)Nc2nnc(S(N)(=O)=O)s2)cc1	> 100 µM
CC12CCC(CC(=O)/C1=C(/Br)I)C2(C)C (stereo not drawn)	> 100 µM
COC1CC(N)(c2ccccc2)C(O)C(C)O1 (stereo not drawn)	> 100 µM
O=C1OCC2=C1C(c1cccc(F)c1)c1cc3c(cc1N2CCO)OCO3 (stereo not drawn)	> 50 µM
c1ccc(/C(=N/Nc2nc3ccccc3s2)C2CCCCC2)nc1	26.1 µM
CN(C(=O)/C=C/c1ccccc1)C1C2CN3CCC(O2)C13 (stereo not drawn)	> 100 µM
N=C1C(O)C2(I)c3ccccc3N3C(=N)C(O)C4c5ccccc5N1C4C32 (stereo not drawn)	> 100 µM
Oc1cccc(Nc2nc3ccccc3c3occc23)c1	20.2 µM
C1CSCCCSCCCSCCCSCCCSCCCSCCCSCCCSC1	> 100 µM
O=C1[C@H](O)[C@@H]2C(O)O[C@H]3[C@@H]2N1C[C@H]3[Si](c1ccccc1)(c1ccccc1)c1ccccc1 (stereo partly drawn)	> 100 µM
CCC/C(Cl)=N\OC(=O)Nc1ccc(F)cc1	> 100 µM
Cc1c2cnccc2c(C)c2c1c1cc(C#N)ccc1n2C	0.427 µM
CC(C)c1ccc(Cn2ccc3c4c(N)nc(NC5CC5)nc4ccc32)cc1	1.07 µM
Cn1c(=O)c2[nH]c(N/N=N/c3nncs3)nc2n(C)c1=O	> 100 µM
O=C(O)CC(Cc1ccccc1Cl)C(=O)O (stereo not drawn)	> 100 µM
O=c1cc(-c2cccs2)[nH]c2cc3c(cc12)OCO3	> 39.1 µM
COc1cc(/C=C/C(=O)/C=C/c2cc(OC)c3c(c2)OCO3)cc2c1OCO2	> 100 µM
Cc1ccc2cnc(N)c(C#Cc3cc(C(=O)Nc4ccc(CN5CCN(C)CC5)c(C(F)(F)F)c4)cnc3C)c2c1	1.34 µM
O=[N+]([O-])c1ccccc1N=Nc1c(O)[nH]c2cccc(C(F)(F)F)c12	> 100 µM
COC(=O)Cc1cc(O)c2c(c1O)C(=O)c1ccccc1C2=O	> 100 µM
Nc1nc2ccc(-c3nc4ccc5[nH]ncc5c4c4c3CCC4)cc2s1	5.12 µM
O=C(c1ccc2ccccc2c1)c1c(C(F)(F)F)n([O-])c2ccc(C(F)(F)F)cc2[n+]1=O	3.69 µM
CN(C)CCNC(=O)Cn1ccc(=O)c2cc([N+](=O)[O-])ccc21	> 100 µM
CCOC(=O)c1ccc(-n2[nH]nc(C(N)=O)c2=O)cc1	> 100 µM
Oc1cc(Cc2ccccc2)c(Cc2ccccc2)cc1O	> 10 µM
S=C1c2ccc(Cl)cc2-n2cnnc2C2CSCN12 (stereo not drawn)	> 100 µM
COC(=O)/C(=N\NC(C)(C)C)C(C(=O)OC)C(=O)C(=O)Nc1cc(Cl)ccc1Cl (stereo not drawn)	> 100 µM
CCc1cccc(C)c1NS(=O)(=O)c1ccccc1	> 100 µM
O=C(O)CCNS(=O)(=O)c1ccc(NC(=O)c2ccccc2)cc1	> 100 µM
CN(C)c1cc2ccccc2oc1=O	> 100 µM
O=C(Nc1ccccc1)N(C1=NCC(CI)S1)c1ccc(F)c(F)c1 (stereo not drawn)	> 100 µM
Nc1ncn([C@@H]2S[C@H](CO)[C@@H](O)[C@@H]2F)c(=O)n1	> 100 µM
c1ncn(C23C4C5C6C4C2C6C53)n1 (stereo not drawn)	> 100 µM
CCOC(=O)NC(=O)c1cn(CCN2CCN(C(=O)NCCCCCCNC(=O)N3CCN(CCn4cc(C(=O)NC(=O)OCC)c(=O)[nH]c4=O)CC3)CC2)c(=O)[nH]c1=O	> 100 µM
COc1ccc(N2CC(=O)N(C(=O)COc3ccc(OCC(=O)N4C(=O)CN(c5ccc(OC)cc5)C4=S)cc3)C2=S)cc1	> 100 µM
CC(=O)Nc1ccc(-c2cc(C(=O)O)c3cc4ccccc4cc3n2)cc1	> 100 µM
COc1ccc(C2=Nn3c(nnc3-c3cc(Cl)cc(Cl)c3Cl)SC2)cc1	> 100 µM
N#Cc1c(-c2ccc(Cl)cc2)c2c(nn3c4ccc5ccccc5c4nnc23)[nH]c1=O	16.2 µM
Cc1ccc(C)c(NC(=O)C(=O)C(C(=O)c2ccc3ccccc3c2)C2OC(=O)c3ccccc32)c1 (stereo not drawn)	27.7 µM
Cn1c(=O)nc2n(-c3ccc(O)cc3)c3ccccc3nc-2c1=O	> 100 µM
